test system: UMC-11 (Other Solid Carcinomas); experiment: Bliss excess, mean over the matrix (fraction); higher = more synergy;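 note: after 72 h of two-drug dosing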
measured_parameter: Bliss excess
Give the value as a plain number.

COc1nnc2ccc(N3CCC(c4ccc(OCCN5CCN(C)C(=O)[C@H]5C)cc4)CC3)nn12 [AZD5153] + C[C@@H]1COCCN1C2=NC(=NC(=C2)C3(CC3)[S@](=N)(=O)C)C4=C5C=CNC5=NC=C4 [AZD6738] (first compound max 1 µM, 7x7, partner max 10 µM) ... 0.0169

Let us move to another entry and its Bliss excess.
Query: What does the record list as Bliss excess for C[C@@H](c1ccc2nccn2c1)n1nnc2ncc(-c3cnn(C)c3)nc21 [Savolitinib] + CN(CC[C@H](CSC1=CC=CC=C1)NC2=C(C=C(C=C2)S(=O)(=O)NC(=O)C3=CC=C(C=C3)N4CCC(CC4)[C@H](C5=CC=CC=C5C6=CC=C(C=C6)Cl)O)S(=O)(=O)C(F)(F)F)CCO [AZD4320] (first compound max 1 µM, 7x7, partner max 1 µM) ?
Result: 0.0211
